src = ChEMBL document CHEMBL1151757

Tested on: Midbrain
EXPERIMENTAL PROTOCOL: Drug uptake in anesthetized cynomolgus monkey brain midbrain after 3.5 mins postinjection
Format: ADME, organism-based, Macaca fascicularis
Set-up: unit not given here
STUDY CONDITIONS: in vivo
Drug uptake listing for selected compounds.
RESULT TYPE: Drug uptake

1) O=C(OCC[18F])C1C2CCC(CC1c1ccc(/C=C\I)cc1)N2 (stereo not given) : 0.84
2) O=C(OCC[18F])C1C2CCC(CC1c1cccc(/C=C\Br)c1)N2 (stereo not given) : 0.95
3) O=C(OCCC[18F])C1C2CCC(CC1c1cccc(/C=C\I)c1)N2 (stereo not given) : 1.74
4) O=C(OCC[18F])C1C2CCC(CC1c1cccc(/C=C\I)c1)N2 (stereo not given) : 1.19
5) O=C(OCCC[18F])C1C2CCC(CC1c1cccc(/C=C\Br)c1)N2 (stereo not given) : 2.59

* * *

System: Medulla
EXPERIMENTAL PROTOCOL: Drug uptake in anesthetized cynomolgus monkey brain medulla after 155 mins postinjection
Format: ADME, organism-based, Macaca fascicularis
STUDY CONDITIONS: in vivo
RESULT TYPE: Drug uptake

1. O=C(OCCC[18F])C1C2CCC(CC1c1cccc(/C=C\I)c1)N2 (stereo not given) : 4.09
2. O=C(OCCC[18F])C1C2CCC(CC1c1cccc(/C=C\Br)c1)N2 (stereo not given) : 4.48
3. O=C(OCC[18F])C1C2CCC(CC1c1cccc(/C=C\I)c1)N2 (stereo not given) : 2.98
4. O=C(OCC[18F])C1C2CCC(CC1c1cccc(/C=C\Br)c1)N2 (stereo not given) : 3.83
5. O=C(OCC[18F])C1C2CCC(CC1c1ccc(/C=C\I)cc1)N2 (stereo not given) : 3.73

* * *

Recorded Ratio by entry
EXPERIMENTAL PROTOCOL: Ratio of drug uptake in putamen to cerebellum in anesthetized cynomolgus monkey after 215 mins postinjection
Format: ADME, organism-based, Macaca fascicularis
STUDY CONDITIONS: in vivo
RESULT TYPE: Ratio

1. O=C(OCC[18F])C1C2CCC(CC1c1cccc(/C=C\Br)c1)N2 (stereo not given) : 1.8
2. O=C(OCCC[18F])C1C2CCC(CC1c1cccc(/C=C\Br)c1)N2 (stereo not given) : 1.7
3. O=C(OCCC[18F])C1C2CCC(CC1c1cccc(/C=C\I)c1)N2 (stereo not given) : 1.5
4. O=C(OCC[18F])C1C2CCC(CC1c1ccc(/C=C\I)cc1)N2 (stereo not given) : 3.3
5. O=C(OCC[18F])C1C2CCC(CC1c1cccc(/C=C\I)c1)N2 (stereo not given) : 1.8

* * *

Recorded Drug uptake by entry
System: Medulla
EXPERIMENTAL PROTOCOL: Drug uptake in anesthetized cynomolgus monkey brain medulla after 45 mins postinjection
Format: ADME, organism-based, Macaca fascicularis
STUDY CONDITIONS: in vivo, 0.75 h
RESULT TYPE: Drug uptake

1) O=C(OCC[18F])C1C2CCC(CC1c1cccc(/C=C\Br)c1)N2 (stereo not given) : 4.87
2) O=C(OCCC[18F])C1C2CCC(CC1c1cccc(/C=C\I)c1)N2 (stereo not given) : 5.13
3) O=C(OCC[18F])C1C2CCC(CC1c1cccc(/C=C\I)c1)N2 (stereo not given) : 4
4) O=C(OCC[18F])C1C2CCC(CC1c1ccc(/C=C\I)cc1)N2 (stereo not given) : 3.69
5) O=C(OCCC[18F])C1C2CCC(CC1c1cccc(/C=C\Br)c1)N2 (stereo not given) : 5.8
